# Kd per entry
experimental.system: T1, CD71 (Homo sapiens (Human), UniProt P02786 89-760)
T1 construct: also called transferrin receptor; TfR1
T1 sequence (P02786 89-760 limits assumed, form in doubt): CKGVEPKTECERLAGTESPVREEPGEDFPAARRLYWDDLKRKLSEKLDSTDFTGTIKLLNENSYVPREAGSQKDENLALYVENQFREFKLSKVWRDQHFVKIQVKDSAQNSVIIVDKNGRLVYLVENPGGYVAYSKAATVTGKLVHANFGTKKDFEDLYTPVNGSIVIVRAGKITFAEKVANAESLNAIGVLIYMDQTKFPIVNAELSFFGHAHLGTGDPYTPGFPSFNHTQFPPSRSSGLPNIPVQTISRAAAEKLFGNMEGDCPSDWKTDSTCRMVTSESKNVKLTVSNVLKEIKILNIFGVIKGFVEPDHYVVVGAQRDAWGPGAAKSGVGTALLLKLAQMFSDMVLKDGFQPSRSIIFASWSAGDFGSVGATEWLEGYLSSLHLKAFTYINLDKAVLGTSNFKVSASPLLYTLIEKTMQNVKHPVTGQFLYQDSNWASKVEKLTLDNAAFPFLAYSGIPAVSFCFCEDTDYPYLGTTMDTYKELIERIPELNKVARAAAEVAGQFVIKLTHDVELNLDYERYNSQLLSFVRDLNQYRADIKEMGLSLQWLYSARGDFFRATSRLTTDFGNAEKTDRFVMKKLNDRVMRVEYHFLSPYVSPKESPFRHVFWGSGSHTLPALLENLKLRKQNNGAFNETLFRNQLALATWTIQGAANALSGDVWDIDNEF
test.name: SPR Biacore X100, conjugate duplexed to biotin-DNA on streptavidin chip, CD71 injected 6.25-100 nM, 1:1 fit
Starred links: 1 amine or outer side, 2 acyl side, 3 side chain; linkers in the order of their positions; H or OH if unused. Positions of bridges follow the written chain, without caps; N, C: chain ends. Non-standard residues stand in square brackets, D forms with d. *: point of attachment. azidopropyl = N-terminal modification AzPro, [N-]=[N+]=NCCC*; TATB = O=C(C[*:1])N1CN(C(=O)C[*:2])CN(C(=O)C[*:3])C1; oligonucleotide 1590463 = not defined here; Aze = O=C(O)[C@@H]1CCN1
Write the answer as a number in nM, unit excluded.

Please review the following examples before continuing.
| binder | Kd (nM) |
| --- | --- |
| CSXDAHLGCISYCX (not fully specified; as printed CS[Aze]DAHLGCISYC[K(N3)]: N-terminal acetyl; C-terminal amide; three Cys bound to TATB scaffold; [Aze] azetidine at 3; [K(N3)] 6-azido lysine at 14 joined via BCN linker to oligonucleotide 1590463, also called Compound No. 1590463 conjugated to BCY17879) [1590463-BCY17879] | 31.2 |
| {oligonucleotide 1590463-BCN linker-azidopropyl}-CS[Aze]DAHLGCISYC-NH2 (linker 1-9-13 via TATB; reading uncertain; also: printed as CiS[Aze]DAHLGCiiISYCiii, also called Compound No. 1590463 conjugated to BCY17880) [1590463-BCY17880] | 8.2 |
| {oligonucleotide 1590463-BCN linker-azidopropyl}-CSPDAHLGCISYCEPW-NH2 (linker 1-9-13 via TATB; reading uncertain, also called Compound No. 1590463 conjugated to BCY17874) [1590463-BCY17874] | 32 |
| NWNCSPDAHLGCISYCX (not fully specified; as printed NWNCSPDAHLGCISYC[K(N3)]: no N-terminal modification; C-terminal amide; three Cys bound to TATB scaffold; [K(N3)] 6-azido lysine at 17 joined via BCN linker to oligonucleotide 1590463, also called Compound No. 1590463 conjugated to BCY17870) [1590463-BCY17870] | 0.1 |

Sample NWNCSPDAHLGCISYCX (not fully specified; as printed NWNCSPDAHLGCISYC[K(N3)]: N-terminal acetyl; C-terminal amide; three Cys bound to TATB scaffold; [K(N3)] 6-azido lysine at 17 joined via BCN linker to oligonucleotide 1590463, also called Compound No. 1590463 conjugated to BCY17871) [1590463-BCY17871] — what was its Kd?
2.4
